Target: PRMT5/MEP50 complex (Homo sapiens (Human))
Sequence (O14744 2-637): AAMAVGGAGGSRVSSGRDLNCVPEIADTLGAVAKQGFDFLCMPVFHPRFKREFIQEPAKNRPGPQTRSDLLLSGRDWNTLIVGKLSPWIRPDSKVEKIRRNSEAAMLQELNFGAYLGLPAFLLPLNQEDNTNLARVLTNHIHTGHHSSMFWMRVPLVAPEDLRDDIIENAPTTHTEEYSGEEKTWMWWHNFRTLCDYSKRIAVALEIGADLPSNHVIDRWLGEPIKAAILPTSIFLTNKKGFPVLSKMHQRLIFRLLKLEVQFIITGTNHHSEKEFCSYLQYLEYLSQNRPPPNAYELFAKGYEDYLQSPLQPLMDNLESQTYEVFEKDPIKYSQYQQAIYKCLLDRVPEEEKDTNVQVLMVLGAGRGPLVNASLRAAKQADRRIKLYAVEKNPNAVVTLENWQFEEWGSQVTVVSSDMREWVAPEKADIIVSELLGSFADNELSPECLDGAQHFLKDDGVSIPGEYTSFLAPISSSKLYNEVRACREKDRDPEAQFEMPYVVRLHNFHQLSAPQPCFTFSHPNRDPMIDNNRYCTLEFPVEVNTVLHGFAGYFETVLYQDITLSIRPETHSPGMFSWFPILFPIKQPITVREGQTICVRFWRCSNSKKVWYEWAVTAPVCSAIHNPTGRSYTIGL
Sequence (Q9BQA1 2-342 partner): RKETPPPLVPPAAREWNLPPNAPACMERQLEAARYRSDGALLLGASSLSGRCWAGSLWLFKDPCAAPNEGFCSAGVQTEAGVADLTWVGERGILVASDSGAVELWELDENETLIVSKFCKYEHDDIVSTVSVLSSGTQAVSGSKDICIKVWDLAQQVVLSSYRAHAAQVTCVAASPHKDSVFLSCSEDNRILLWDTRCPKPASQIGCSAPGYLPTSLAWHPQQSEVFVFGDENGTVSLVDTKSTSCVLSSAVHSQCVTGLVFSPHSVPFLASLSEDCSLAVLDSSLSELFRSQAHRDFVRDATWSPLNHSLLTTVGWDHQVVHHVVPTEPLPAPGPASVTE
Assay: PRMT5:MEP50 FlashPlate Assay (histone H4 peptide substrate, plus and minus MTA)
Type: biochemical
Conditions: read-out: IC50 + 2 μM MTA, in the presence of 2 μM MTA
REPORTED_ENDPOINT: IC50 (nM)

P. N#Cc1cncc(-c2ccc3c(=O)[nH]nc(CN)c3c2)c1F
Q. NCc1n[nH]c(=O)c2ccc(-c3cnn(CCO)c3)cc12
// which entry has the larger IC50 value, P or Q ? Please respond with the label that marks your chosen entry. Q

----------
Item-by-item account of pIC50
Test system: HCT116 parental cells
Test: Proliferation assay (CellTiter-Glo, 10 days of treatment), HCT116 parental
Type: cell-based
Conditions: Homo sapiens, HCT-116, 240 h
Please treat pIC50 as minus the base-10 logarithm of the molar concentration.

// solved cases for pIC50 follow
> print(dat)
                                   molecule  observed.result
1  Cc1ccc(-c2c(-c3ccc4c(=O)[nH]nc(CN)c4c3)cnn2C)c(C#N)c1C             6.68
2  Cn1ncc(-c2ccc3c(=O)[nH]nc(CN)c3c2)c1-c1ccc2c(Cl)cccc2c1C#N             5.03
3  CCOc1ccn2ncc(-c3ccc4c(=O)[nH]nc(CN)c4c3)c2c1             5.76
4  Cn1ncc(-c2cc(Cl)c3c(=O)[nH]nc(CN)c3c2)c1-c1ccc2ccccc2c1C#N             5.64

Okay, now this molecule:
Any idea what its pIC50 is? The molecule is CC(N)c1n[nH]c(=O)c2ccc(-c3cnn(C)c3-c3ccc4ccccc4c3C#N)cc12 (single isomer, unassigned) 5.19
